test: Pharmacokinetic study in rats after single oral administration of GLB (HPLC-UV in plasma); assay type: in vivo, Sprague-Dawley rats; conditions: male, Sprague-Dawley, rat, plasma, po, 100 mg/kg, rat plasma, single oral GLB 100 mg/kg, n = 6; read-out: Tmax
Kindly state Tmax for each of the entries shown.
State the answer as a number, implicitly in h.

Prompt: For CC(=O)N1N=C(c2ccc(Br)cc2)OC12C1OC(C)(C)OC1COC21COC(C)(C)O1 (centres unmarked) [GLB] , write its Tmax.
Response: 6

Prompt: Kindly indicate its recorded Tmax. Item: CC(=O)N1N=C(c2ccc(Br)cc2)OC1(C1OC(C)(C)OC1C(=O)O)C1(O)COC(C)(C)O1 (centres unmarked) [M1]
Response: 6

* * *

test: Pharmacokinetic study in rats after single oral administration of GLB (HPLC-UV in plasma); assay type: in vivo, Sprague-Dawley rats; conditions: male, Sprague-Dawley, rat, plasma, oral, 100 mg/kg, 8 h after single oral GLB 100 mg/kg, rat; M1/M2 relative to GLB standard curve
Would you kindly list concentration at 8 h for each of these molecules?
Your answer is read as ng/mL, so omit the unit and give the number.

Prompt: Return the recorded concentration at 8 h value; entry: CC(=O)N1N=C(c2ccc(Br)cc2)OC12C1OC(C)(C)OC1COC21COC(C)(C)O1 (centres unmarked) [GLB]
Response: 1600

Prompt: Report measured concentration at 8 h; entry is CC(=O)N1N=C(c2ccc(Br)cc2)OC1(C1OC(C)(C)OC1C(=O)O)C1(O)COC(C)(C)O1 (centres unmarked) [M1]
Response: 443
